Readings of % Activity, L929 androgen receptor functional assay for the listed compounds
- Test System: androgen receptor (AdEasy+rAR, L929 cells) (Rattus norvegicus)
- Construct: expressed in transfected cells; host or cells: L929 cells transduced with adenovirus AdEasy+rAR
- Sequence (P15207 whole entry S389L): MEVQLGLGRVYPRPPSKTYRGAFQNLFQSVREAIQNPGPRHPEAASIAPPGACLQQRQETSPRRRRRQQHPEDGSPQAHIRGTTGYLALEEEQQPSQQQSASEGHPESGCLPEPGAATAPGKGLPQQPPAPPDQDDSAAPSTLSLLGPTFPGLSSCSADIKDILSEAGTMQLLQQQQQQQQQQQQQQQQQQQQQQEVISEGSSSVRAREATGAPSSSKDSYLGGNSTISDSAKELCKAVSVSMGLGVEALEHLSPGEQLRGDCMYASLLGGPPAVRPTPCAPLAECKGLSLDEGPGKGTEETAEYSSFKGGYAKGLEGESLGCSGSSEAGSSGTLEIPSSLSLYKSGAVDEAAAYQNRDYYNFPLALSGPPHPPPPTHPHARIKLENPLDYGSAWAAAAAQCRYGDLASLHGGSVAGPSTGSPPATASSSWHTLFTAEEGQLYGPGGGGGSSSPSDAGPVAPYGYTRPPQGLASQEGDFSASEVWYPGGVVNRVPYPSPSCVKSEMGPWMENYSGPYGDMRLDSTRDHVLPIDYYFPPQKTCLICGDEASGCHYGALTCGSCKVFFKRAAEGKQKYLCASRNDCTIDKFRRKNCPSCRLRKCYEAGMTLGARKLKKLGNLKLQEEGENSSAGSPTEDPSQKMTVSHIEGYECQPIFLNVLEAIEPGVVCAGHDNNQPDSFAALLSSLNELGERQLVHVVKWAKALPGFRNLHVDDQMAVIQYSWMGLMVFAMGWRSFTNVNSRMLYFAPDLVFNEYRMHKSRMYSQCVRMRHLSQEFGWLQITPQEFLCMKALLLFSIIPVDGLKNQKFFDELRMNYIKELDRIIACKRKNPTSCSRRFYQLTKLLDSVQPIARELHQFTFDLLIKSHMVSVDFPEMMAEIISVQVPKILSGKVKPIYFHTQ
- Assay Text: L929 Androgen Receptor Functional Assay, Adenovirus Transduction
- Assay type: cell-based
- Reported Conditions: agonist testing, 3000 nM; 3 µM
State the value with its unit after it.

# annotated cases, reported % Activity, L929 androgen receptor functional assay shown
Compound: CCSCC(C)(O)c1[nH]c2cc(C(F)(F)F)c(C#N)cc2c1C (single isomer, unassigned) [Compound 233]
Test System: androgen receptor (AdEasy+rAR, L929 cells) (Rattus norvegicus)
Measurement: 0%
--
Compound: CCS(=O)(=O)CC(C)(O)c1[nH]c2cc(C(F)(F)F)c(C#N)cc2c1C (single isomer, unassigned) [Compound 252]
Test System: androgen receptor (AdEasy+rAR, L929 cells) (Rattus norvegicus)
Measurement: 1%
--
Compound: CC(O)(CSCC(F)(F)F)c1cc2cc([N+](=O)[O-])c(C(F)(F)F)cc2[nH]1 (stereo not drawn) [Compound 171]
Test System: androgen receptor (AdEasy+rAR, L929 cells) (Rattus norvegicus)
Measurement: 11%
--
Compound: CCSCC(C)(O)c1cc2cc(F)c(C(F)(F)F)cc2[nH]1 (racemic) [Compound 206]
Test System: androgen receptor (AdEasy+rAR, L929 cells) (Rattus norvegicus)
Measurement: 5%
--
Compound: CCSCC(C)(O)c1[nH]c2cc(C(F)(F)F)c(C#N)cc2c1C (single isomer, unassigned) [Compound 234]
Test System: androgen receptor (AdEasy+rAR, L929 cells) (Rattus norvegicus)
Measurement: −1%

Proceed to the following item.
Fill blank: measured % Activity, L929 androgen receptor functional assay of the compound CSCC(C)(O)c1cc2cc([N+](=O)[O-])c(C(F)(F)F)cc2[nH]1 (single isomer, unassigned) [Compound 144] is ____. 0%
